Hey, just so you know, these numbers are from PubChem BioAssay.

- assay: antimalarial activity against Dd2 strain (AID 2302);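 note: 0% = DMSO untreated growth and 100% = chloroquine plus artemisinin killed control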
- testContext: P. falciparum Dd2 in RBCs, LDH growth readout, 72 h; at 2 µM; stronger effect = higher value
Each entry falls in a class defined on growth inhibition; the bands are label 0 (below 20%), label 1 (20% to below 80%), label 2 (80% or more)

Reference set (5 entries):
molecule | assignedClass
COc1ccc2nccc([C@@H](O)CN3CCC(NCCOc4cc(C(F)(F)F)ccc4F)CC3)c2c1 | label 2
CCC(=O)Nc1ccc(Nc2nc(C)cc(N3CCCC3)n2)cc1 | label 0
COc1cc(F)c2nccc([C@@H](O)CN3CCC(NCc4cc5c(cc4F)OCCO5)CC3)c2c1 | label 1
COc1ccc2c(c1)CC1CN(CCCCNC(=O)c3ccc(NC(=O)c4cc(Cl)cc(Cl)c4)cc3)CCN1C2 (centres undefined) | label 1
CCC(CSC1CCCCC1)N(C)CCN(C)C(CC)CSC1CCCCC1 (centres undefined) | label 2

Textbook exercise: identify the category of the molecule given here, `O=C(NCCCCN1CCC[C@@H]2c3cccc(O)c3CC[C@@H]21)c1ccc(-c2ccccc2)cc1` , according to its measured value.
label 0

Textbook exercise: identify the category of the molecule given here, `O=C1NC(=O)C(c2ccc(Cl)cc2)=C1Nc1cccc(S(=O)(=O)C(F)(F)F)c1` , according to its measured value.
label 1

Textbook exercise: identify the category of the molecule given here, CCCCC(=O)NC(c1cccs1)c1cc(Cl)c2cccnc2c1O (centres undefined) , according to its measured value.
label 2
